Tested on: S. aureus ATCC 25923
SETUP CONDITIONS: LYM broth, 0.5 mM MgCl2
I'd be grateful if you could share measured MIC for these entries.
Numbers only, in µg/mL.

Please review the following examples before continuing.
[[record]]
substance = "Ac-WLKWLAKKKKWRK-NH2 [Peptide W5K05]"
numeric_value = 1.56

[[record]]
substance = "Ac-AKKKKWRKWLKWL-NH2 [Peptide W5K10]"
numeric_value = 1.56

[[record]]
substance = "Ac-WLAKKKKWRKWLK-NH2 [Peptide W5K08]"
numeric_value = 3.13


Field: MIC. Fill in for each record below.
1. Ac-WRKWLKWLAKKKK-NH2 [Peptide W5K02]
2. Ac-LKWLAKKKKWRKW-NH2 [Peptide W5K06]
3. Ac-KWRKWLKWLAKKK-NH2 [Peptide W5K01]
4. Ac-KWLKWLAKKKKWR-NH2 [Peptide W5K04]
5. Ac-KKKWRKWLKWLAK-NH2 [Peptide W5K12]
6. Ac-KKKKWRKWLKWLA-NH2 [Peptide W5K11]
7. Ac-LAKKKKWRKWLKW-NH2 [Peptide W5K09]

Response given:
6.25
6.25
3.13
6.25
1.56
1.56
3.13

For every record below, what is its MIC?
1. Ac-KWLAKKKKWRKWL-NH2 [Peptide W5K07]
2. Ac-KKWRKWLKWLAKK-NH2 [W5K/A9W]
3. Ac-RKWLKWLAKKKKW-NH2 [Peptide W5K03]

Response given:
[6.25, 1.56, 6.25]
